- System Under Test: Cytochrome P450 2D6 (Homo sapiens, UniProt P10635)
- Sequence (P10635 whole entry): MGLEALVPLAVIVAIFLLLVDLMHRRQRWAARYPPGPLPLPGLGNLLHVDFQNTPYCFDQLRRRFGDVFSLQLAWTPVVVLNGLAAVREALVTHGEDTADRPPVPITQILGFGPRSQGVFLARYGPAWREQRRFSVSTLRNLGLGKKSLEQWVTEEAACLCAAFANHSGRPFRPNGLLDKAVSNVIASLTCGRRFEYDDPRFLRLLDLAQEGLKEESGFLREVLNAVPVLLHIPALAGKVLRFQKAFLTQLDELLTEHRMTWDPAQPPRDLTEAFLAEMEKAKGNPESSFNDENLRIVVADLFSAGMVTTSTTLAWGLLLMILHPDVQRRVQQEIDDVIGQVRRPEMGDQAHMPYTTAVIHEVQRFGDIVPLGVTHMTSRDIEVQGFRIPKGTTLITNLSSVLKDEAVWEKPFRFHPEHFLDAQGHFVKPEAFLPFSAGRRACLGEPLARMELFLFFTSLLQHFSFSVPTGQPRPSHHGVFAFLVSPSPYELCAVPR

Mol	System Under Test	IC50
NCc1ccnc(Cl)c1	Cytochrome P450 2D6 (Homo sapiens, UniProt P10635)	> 30 µM

---

- System Under Test: Cytochrome P450 2C9 (Homo sapiens, UniProt P11712)
- Sequence (P11712 whole entry): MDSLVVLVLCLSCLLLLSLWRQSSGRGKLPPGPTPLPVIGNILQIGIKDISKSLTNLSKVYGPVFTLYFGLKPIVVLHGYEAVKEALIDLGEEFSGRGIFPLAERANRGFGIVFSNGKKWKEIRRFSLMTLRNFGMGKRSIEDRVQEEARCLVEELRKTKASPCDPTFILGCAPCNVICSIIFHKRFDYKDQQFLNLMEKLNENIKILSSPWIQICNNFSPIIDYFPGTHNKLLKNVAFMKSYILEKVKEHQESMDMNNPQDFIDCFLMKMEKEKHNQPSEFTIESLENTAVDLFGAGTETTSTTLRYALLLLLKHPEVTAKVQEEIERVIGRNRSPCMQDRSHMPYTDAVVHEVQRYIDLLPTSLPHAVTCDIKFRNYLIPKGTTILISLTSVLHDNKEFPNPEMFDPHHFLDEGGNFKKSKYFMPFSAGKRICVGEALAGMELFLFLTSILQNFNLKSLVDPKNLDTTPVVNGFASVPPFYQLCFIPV

Mol	IC50
NCc1ccnc(Cl)c1	> 30 µM

---

- System Under Test: UniProtKB Q9Y4K0
- Sequence (Q9Y4K0 whole entry): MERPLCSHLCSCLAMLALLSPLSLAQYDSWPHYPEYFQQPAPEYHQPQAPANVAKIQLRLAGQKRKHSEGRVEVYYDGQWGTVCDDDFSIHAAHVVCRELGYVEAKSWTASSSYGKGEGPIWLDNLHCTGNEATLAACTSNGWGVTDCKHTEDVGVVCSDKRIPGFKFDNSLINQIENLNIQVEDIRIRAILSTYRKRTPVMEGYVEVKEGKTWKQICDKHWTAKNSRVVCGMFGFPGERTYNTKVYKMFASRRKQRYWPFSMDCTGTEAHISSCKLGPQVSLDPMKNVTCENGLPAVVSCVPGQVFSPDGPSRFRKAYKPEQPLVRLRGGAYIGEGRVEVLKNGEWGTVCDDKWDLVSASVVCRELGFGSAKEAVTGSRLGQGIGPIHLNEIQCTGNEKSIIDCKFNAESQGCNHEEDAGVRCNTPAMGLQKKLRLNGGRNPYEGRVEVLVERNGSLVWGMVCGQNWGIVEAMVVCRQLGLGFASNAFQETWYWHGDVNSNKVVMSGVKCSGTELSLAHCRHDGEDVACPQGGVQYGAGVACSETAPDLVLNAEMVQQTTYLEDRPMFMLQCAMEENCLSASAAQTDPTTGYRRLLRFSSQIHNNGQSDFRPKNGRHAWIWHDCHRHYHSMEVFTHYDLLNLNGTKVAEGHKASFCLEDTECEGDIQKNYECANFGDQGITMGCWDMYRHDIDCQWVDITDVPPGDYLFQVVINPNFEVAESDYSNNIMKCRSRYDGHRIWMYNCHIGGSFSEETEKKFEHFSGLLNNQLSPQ
- Measurement Notes: Inhibition of full length recombinant human LOXL2 expressed in CHO cells assessed as reduction in H2O2 production using DAP as substrate preincubated for 2 hrs followed by substrate addition measured every 2 minutes for 50 minutes by Amplex red dye based fluorescence assay
pIC50: −log10 of the molar value.
Below is a list of entries, each paired with its recorded pIC50 value.
Attribute Measured: pIC50

Mol	Readout Number
NCc1ccc(-c2nccs2)cc1	6.04
NCc1ccc([N+](=O)[O-])cc1	6.14
N#Cc1ccc(CN)cc1	6.17

Hey, just so you know, these numbers are from ChEMBL document CHEMBL3994667.
